test: Cytotoxicity against rat PC12 cells assessed as cell viability at 100 uM after 24 hrs by MTT assay; assay type: cell-based, PC-12; conditions: read-out: Activity
Exam item: assign rule met to entries whose viability at 24 h, 100 µM is below 80% and rule not met to entries at or above 80%. Note that a value of exactly 80% receives rule not met.

> print(dat)
                                    compound   group.label
 1   O=S(=O)(/C=C/c1ccc(O)c(O)c1)CCCc1ccccc1  rule not met
 2      CCCCCCCCS(=O)(=O)/C=C/c1ccc(O)c(O)c1      rule met
 3  O=S(=O)(/C=C/c1ccc(O)c(O)c1)CCCCCCCCCCCO  rule not met
 4  O=C(/C=C/c1ccc(O)c(O)c1)OCCc1ccccc1 [CAFFEIC ACID PHENETHYL ESTER]  rule not met
 5    C=CCCCCCCCS(=O)(=O)/C=C/c1ccc(O)c(O)c1      rule met
 6         CCCCCS(=O)(=O)/C=C/c1ccc(O)c(O)c1      rule met
 7     O=S(=O)(/C=C/c1ccc(O)c(O)c1)CCCCCCCCO  rule not met
 8   O=S(=O)(/C=C/c1ccc(O)c(O)c1)CCCC1CCCCC1  rule not met
 9      C=CCCCCCS(=O)(=O)/C=C/c1ccc(O)c(O)c1      rule met
10   CCCCCCCCCCCS(=O)(=O)/C=C/c1ccc(O)c(O)c1      rule met
